Source: patent US8614201B2

# Assayed Target: Human TRPA1 (Homo sapiens, UniProt O75762)
# Sequence (O75762 whole entry): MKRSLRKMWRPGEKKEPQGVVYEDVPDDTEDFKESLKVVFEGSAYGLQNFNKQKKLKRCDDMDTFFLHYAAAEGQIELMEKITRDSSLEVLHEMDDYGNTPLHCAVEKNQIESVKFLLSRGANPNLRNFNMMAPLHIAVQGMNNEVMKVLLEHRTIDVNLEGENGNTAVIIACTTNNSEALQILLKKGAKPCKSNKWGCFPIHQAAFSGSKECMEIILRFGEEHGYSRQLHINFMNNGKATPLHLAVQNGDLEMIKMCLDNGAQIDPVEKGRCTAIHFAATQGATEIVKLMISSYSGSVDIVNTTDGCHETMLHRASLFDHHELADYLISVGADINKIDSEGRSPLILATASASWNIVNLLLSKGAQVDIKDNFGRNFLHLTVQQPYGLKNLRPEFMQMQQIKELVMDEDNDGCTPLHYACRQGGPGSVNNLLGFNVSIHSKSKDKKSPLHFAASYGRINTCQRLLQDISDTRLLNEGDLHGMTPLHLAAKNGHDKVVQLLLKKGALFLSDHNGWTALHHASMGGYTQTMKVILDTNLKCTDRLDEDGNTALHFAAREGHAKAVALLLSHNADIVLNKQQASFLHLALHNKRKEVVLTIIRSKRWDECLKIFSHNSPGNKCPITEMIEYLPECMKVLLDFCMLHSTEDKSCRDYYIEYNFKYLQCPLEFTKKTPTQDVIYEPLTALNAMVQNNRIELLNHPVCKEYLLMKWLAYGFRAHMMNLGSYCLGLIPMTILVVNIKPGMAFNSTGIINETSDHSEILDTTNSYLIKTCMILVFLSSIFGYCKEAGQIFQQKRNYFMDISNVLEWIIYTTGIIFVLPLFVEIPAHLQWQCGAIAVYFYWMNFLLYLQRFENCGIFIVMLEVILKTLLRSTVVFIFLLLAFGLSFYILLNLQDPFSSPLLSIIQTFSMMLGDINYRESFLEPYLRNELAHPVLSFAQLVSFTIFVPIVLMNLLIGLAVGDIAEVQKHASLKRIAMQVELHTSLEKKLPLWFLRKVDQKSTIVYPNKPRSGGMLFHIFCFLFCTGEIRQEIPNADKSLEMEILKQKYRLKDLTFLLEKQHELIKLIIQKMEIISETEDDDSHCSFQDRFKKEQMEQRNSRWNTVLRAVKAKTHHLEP
# Experiment Summary: Assay 1: In vitro cellular testing of TRPA1 modulation (CHO-TREx, Fluo-3 calcium fluorescence, AITC agonist)
# Type: cell-based
# Design: expressed in transfected cells; host or cells: CHO-TREx cells (Invitrogen), vector pcDNA4/TO
# Assay Conditions: CHO-TREx cells expressing human TRPA1; Fluo-3 fluorescence (FLIPR/Tetra); agonist 15 μM allyl isothiocyanate (AITC); 30 minute antagonist incubation
Measured Endpoint: IC50 (nM)

# count of solved cases: 2
{"Compound": "O=C(NCc1cc(-c2ccc(C(F)(F)F)cc2)nc(N2CCNCC2)n1)[C@@H]1CCCN1S(=O)(=O)c1ccc(F)cc1", "Assayed Target": "Human TRPA1 (Homo sapiens, UniProt O75762)", "IC50 / nM": 4420}
{"Compound": "O=C(NCc1cc(-c2ccc(C(F)(F)F)cc2)nc(N2CCN(Cc3ccccn3)CC2)c1)[C@@H]1CCCN1S(=O)(=O)c1ccc(Cl)s1", "Assayed Target": "Human TRPA1 (Homo sapiens, UniProt O75762)", "IC50 / nM": 251}

(a) CC(Nc1cc(CNC(=O)[C@@H]2C=CCN2S(=O)(=O)c2ccc(Cl)s2)cc(-c2ccc(C(F)(F)F)cc2)n1)c1ccncc1 (stereo partly shown)
(b) O=C(NCc1cccc(-c2cc(F)c(OC(F)F)c(F)c2)c1)[C@@H]1CCCN1S(=O)(=O)c1ccc(F)cc1
Q: Response body: label of entry with the larger IC50; valid values a , b . Field: selected label. Fill in the label of the entry you choose.
Result: a
(a: 1910 nM, b: 17 nM)

###

# Assayed Target: Human TRPA1 (Homo sapiens)
# Experiment Summary: Assay 1: In vitro cellular testing of TRPA1 modulation (CHO-TREx, Fluo-3 calcium fluorescence, AITC agonist)
# Assay type: cell-based
# Parameters: expressed in transfected cells; host or cells: CHO-TREx cells (Invitrogen), vector pcDNA4/TO
# Assay Conditions: CHO-TREx cells expressing human TRPA1; Fluo-3 fluorescence (FLIPR/Tetra); agonist 15 μM allyl isothiocyanate (AITC); 30 minute antagonist incubation
# Method: Assay 1: In Vitro Cellular Testing of TRPA1 Modulation Human TRPA1 (NCBI accession number NM_007332.1) was cloned into pcDNA4/TO. […] Following a further 30 minute incubation, cells were assayed using a Fluorometric Imaging Plate Reader (FLIPR™) or a Tetra (both manufactured by Molecular Devices, CA) to simultaneously monitor Fluo-3 fluorescence in all wells (λexcitation=488 nm, λemission=540 nm). […]
pIC50: −log10 of the molar value.
Measured Endpoint: pIC50

{"Compound": "CC(Nc1cc(CNC(=O)[C@@H]2CCCN2S(=O)(=O)c2ccc(Cl)s2)cc(-c2ccc(C(F)(F)F)cc2)n1)c1ccccc1 (some centres unmarked)", "Assayed Target": "Human TRPA1 (Homo sapiens)", "Endpoint Result": 7.24}
{"Compound": "NS(=O)(=O)c1ccc(-c2cccc(CNC(=O)[C@@H]3CCCN3S(=O)(=O)c3ccc(F)cc3)c2)cc1", "Assayed Target": "Human TRPA1 (Homo sapiens)", "Endpoint Result": 5.22}
{"Compound": "O=C(NCc1cc(NCc2ccccn2)nc(-c2ccc(C(F)(F)F)cc2)c1)[C@@H]1CCCN1S(=O)(=O)c1ccc(Cl)s1", "Assayed Target": "Human TRPA1 (Homo sapiens)", "Endpoint Result": 6.29}
{"Compound": "O=C(NCc1cc(NCc2ccncc2)nc(-c2ccc(C(F)(F)F)cc2)c1)[C@@H]1CC(F)(F)CN1S(=O)(=O)c1ccc(F)cc1", "Assayed Target": "Human TRPA1 (Homo sapiens)", "Endpoint Result": 5.98}
{"Compound": "CC(C)CN1CCN(c2cc(CNC(=O)[C@@H]3CC(F)(F)CN3S(=O)(=O)c3ccc(Cl)s3)cc(-c3ccc(C(F)(F)F)cc3)n2)CC1", "Assayed Target": "Human TRPA1 (Homo sapiens)", "Endpoint Result": 6.31}
{"Compound": "CC1CCCN1c1nc(CNC(=O)[C@@H]2CC(F)(F)CN2S(=O)(=O)c2ccc(Cl)s2)cc(-c2ccc(C(F)(F)F)cc2)n1 (some centres unmarked)", "Assayed Target": "Human TRPA1 (Homo sapiens)", "Endpoint Result": 5.21}
{"Compound": "O=C(NCc1cc(-c2ccc(C(F)(F)F)cc2)ncn1)[C@@H]1CCCN1S(=O)(=O)c1cc(F)cc(F)c1", "Assayed Target": "Human TRPA1 (Homo sapiens)", "Endpoint Result": 7.29}
{"Compound": "O=C(NCc1cc(-c2ccc(C(F)(F)F)cc2)nc(OCCN2CCCCC2)n1)[C@@H]1CCCN1S(=O)(=O)c1ccc(Cl)s1", "Assayed Target": "Human TRPA1 (Homo sapiens)", "Endpoint Result": 7.11}

(1) O=C(NCc1cccc(-c2ccc(OC(F)(F)F)c(F)c2)c1)[C@@H]1CCCN1S(=O)(=O)c1ccc(F)cc1
(2) O=C(NCc1cc(-c2ccc(C(F)(F)F)cc2)nc(NC2CCCC2)n1)[C@@H]1CCCN1S(=O)(=O)c1ccc(F)cc1
Q: Hi! Which is lower in terms of pIC50, the first one 1 or the second one 2 ? Field: selected label. Fill in the label of the entry you choose.
Result: 2
(2: 7.07, 1: 8.40)

(I) O=C(NCc1cc(NCc2ccccn2)nc(-c2ccc(C(F)(F)F)cc2)c1)[C@@H]1CC(F)(F)CN1S(=O)(=O)c1ccc(Cl)s1
(II) O=C(NCc1cc(-c2ccc(C(F)(F)F)cc2)nc(-c2ccc(C(F)(F)F)cc2)n1)[C@@H]1CCCN1S(=O)(=O)c1ccc(F)cc1
(III) O=C(NCc1cc(-c2ccc(C(F)(F)F)cc2)nc(N2CCN(Cc3ccccc3OC(F)(F)F)CC2)n1)[C@@H]1CCCN1S(=O)(=O)c1ccc(F)cc1
(IV) O=C(NCc1cc(NCc2cccnc2)nc(-c2ccc(C(F)(F)F)cc2)c1)[C@@H]1CCCN1S(=O)(=O)c1ccc(Cl)s1
Q: Order the records so the highest pIC50 appears first and the lowest last. Please list each label once, in the requested order.
Result: II, III, IV, I
(II: 8.52, III: 6.83, IV: 5.69, I: 5.29)

###

# Assayed Target: UniProt:O75762
# Experiment Summary: Assay 1: In vitro cellular testing of TRPA1 modulation (CHO-TREx, Fluo-3 calcium fluorescence, AITC agonist)
# Assay type: cell-based
# Set-up: expressed in transfected cells; host or cells: CHO-TREx cells (Invitrogen), vector pcDNA4/TO
# Assay Conditions: CHO-TREx cells expressing human TRPA1; Fluo-3 fluorescence (FLIPR/Tetra); agonist 15 μM allyl isothiocyanate (AITC); 30 minute antagonist incubation
pIC50: −log10 of the molar value.
Measured Endpoint: pIC50

{"Compound": "O=C(NCc1cc(-c2ccc(C(F)(F)F)cc2)ncn1)[C@@H]1CCCN1S(=O)(=O)c1ccc(F)cc1 [Example 11]", "Assayed Target": "UniProt:O75762", "pIC50": 7.19}
{"Compound": "O=C(NCc1cc(-c2ccc(C(F)(F)F)cc2)ccn1)[C@@H]1CC(F)(F)CN1S(=O)(=O)c1ccc(Cl)s1 [Example 140]", "Assayed Target": "UniProt:O75762", "pIC50": 7.10}
{"Compound": "CC(Nc1cc(CNC(=O)[C@@H]2C=CCN2S(=O)(=O)c2ccc(Cl)s2)cc(-c2ccc(C(F)(F)F)cc2)n1)c1ccccc1 (some centres unmarked) [Example 407]", "Assayed Target": "UniProt:O75762", "pIC50": 6.73}
{"Compound": "O=C(NCc1cc(-c2ccc(C(F)(F)F)cc2)ncn1)[C@@H]1CCCN1S(=O)(=O)c1ccc(Cl)cc1 [Example 152]", "Assayed Target": "UniProt:O75762", "pIC50": 7.18}
{"Compound": "O=C(NCc1cc(-c2ccc(C(F)(F)F)cc2)nc(N2CCN(Cc3ccncc3)CC2)n1)[C@@H]1CCCN1S(=O)(=O)c1ccc(F)cc1 [Example 21]", "Assayed Target": "UniProt:O75762", "pIC50": 7.62}
{"Compound": "CCC(CC)N1CCN(c2nc(CNC(=O)[C@@H]3CCCN3S(=O)(=O)c3ccc(F)cc3)cc(-c3ccc(C(F)(F)F)cc3)n2)CC1 [Example 13]", "Assayed Target": "UniProt:O75762", "pIC50": 7.05}
{"Compound": "O=C(NCc1cc(NCc2ccncc2)nc(-c2ccc(C(F)(F)F)cc2)c1)[C@@H]1CCCN1S(=O)(=O)c1ccc(F)cc1 [Example 385]", "Assayed Target": "UniProt:O75762", "pIC50": 6.01}
{"Compound": "O=C(NCc1cc(-c2ccc(C(F)(F)F)cc2)nc(N2CCN(Cc3ccccn3)CC2)c1)[C@@H]1CC(F)(F)CN1S(=O)(=O)c1ccc(Cl)s1 [Example 375]", "Assayed Target": "UniProt:O75762", "pIC50": 5.71}
{"Compound": "O=C(NCc1cc(NCc2ccccc2)nc(-c2ccc(C(F)(F)F)cc2)c1)[C@@H]1C=CCN1S(=O)(=O)c1ccc(F)cc1 [Example 321]", "Assayed Target": "UniProt:O75762", "pIC50": 5.99}
{"Compound": "CN1CCC(CN2CCN(c3nc(CNC(=O)[C@@H]4CCCN4S(=O)(=O)c4ccc(F)cc4)cc(-c4ccc(C(F)(F)F)cc4)n3)CC2)CC1 [Example 20]", "Assayed Target": "UniProt:O75762", "pIC50": 5.69}

(I) O=C(NCc1cc(-c2ccc(OC(F)(F)F)cc2)ccn1)[C@@H]1CCCN1S(=O)(=O)c1ccc(Cl)s1 [Example 138]
(II) O=C(NCc1cccc(-c2ccc(N3CCOCC3)nc2)c1)[C@@H]1CCCN1S(=O)(=O)c1ccc(F)cc1 [Example 97]
(III) N#Cc1ccc(-c2cccc(CNC(=O)[C@@H]3CCCN3S(=O)(=O)c3ccc(F)cc3)c2)cc1 [Example 86]
(IV) O=C(NCc1cc(NCc2ccccc2)nc(-c2ccc(C(F)(F)F)cc2)c1)[C@@H]1C=CCN1S(=O)(=O)c1ccc(Cl)s1 [Example 320]
(V) CC(C)COc1nc(CNC(=O)[C@@H]2CCCN2S(=O)(=O)c2ccc(Cl)s2)cc(-c2ccc(C(F)(F)F)cc2)n1 [Example 43]
Q: Sort the compounds on pIC50; start with the lowest figure. Please list each label once, in the requested order.
Result: II, IV, III, I, V
(II: 5.77, IV: 6.13, III: 7.07, I: 7.77, V: 8.40)

(a) CC(Nc1cc(CNC(=O)[C@@H]2CC(F)(F)CN2S(=O)(=O)c2ccc(F)cc2)cc(-c2ccc(C(F)(F)F)cc2)n1)c1cccnc1 (some centres unmarked) [Example 398]
(b) O=C(NCc1cc(-c2ccc(C(F)(F)F)cc2)nc(N2CCN(Cc3ccccc3Cl)CC2)n1)[C@@H]1CCCN1S(=O)(=O)c1ccc(F)cc1 [Example 50]
(c) O=C(NCc1cccc(-c2ccccc2C(F)(F)F)c1)[C@@H]1CCCN1S(=O)(=O)c1ccc(F)cc1 [Example 67]
(d) O=C(NCc1cc(-c2ccc(C(F)(F)F)cc2)nc(N2CCN(c3ccccc3F)CC2)c1)[C@@H]1C=CCN1S(=O)(=O)c1ccc(Cl)s1 [Example 359]
(e) CCOc1nc(CNC(=O)[C@@H]2CCCN2S(=O)(=O)c2ccc(Cl)s2)cc(-c2ccc(C(F)(F)F)cc2)n1 [Example 49]
Q: Sort the compounds on pIC50; start with the lowest figure. Please list each label once, in the requested order.
Result: a, d, c, b, e
